result-type: logP

compound	quantitative-result
CC(C)(C)C(=O)CC(C(O)C(C)(C)C)n1cncn1 (stereo unspecified)	1.95

---

result-type: logP

smiles-repr	result-type	quantitative-result
CCOP(=O)(OCC)Oc1cc(C)nc(NC(C)C)n1	logP	2.07

---

# measurement-description: method code SF-AS, from DOI: 10.1248/cpb.17.2558
# condition-description: pH 5.5
result-type: logD

smiles-repr	result
CNc1ccc(S(N)(=O)=O)cc1	0.08

---

# measurement-description: method code SF-AS, from DOI: 10.1002/jps.2600741028, PMID: 4078715

smiles-repr	logP
[O-][N+](=Cc1ccccc1)c1ccccc1	1.88
Cc1ccc(C=[N+]([O-])c2ccccc2)cc1	2.41
Cc1cccc(C)c1C#[N+][O-]	2.74
CC(C)c1ccc(C=[N+]([O-])c2ccccc2)cc1	3.37
